# EXPERIMENTAL_TARGET: T1, Human BCMA (human, UniProt Q02223 1-54, limits assumed)
# T1 construct: Soluble analyte in SPR; construct not described; also called huBCMA; B-cell maturation antigen
# T1 sequence (looked up): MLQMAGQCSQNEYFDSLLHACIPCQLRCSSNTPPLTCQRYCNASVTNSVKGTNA
# METHOD: SPR, IgG immobilised, 25 C

{"BINDER": "L1.GDF/L3.NY/H3.AP (antibody, V domains shown, IgG) VH: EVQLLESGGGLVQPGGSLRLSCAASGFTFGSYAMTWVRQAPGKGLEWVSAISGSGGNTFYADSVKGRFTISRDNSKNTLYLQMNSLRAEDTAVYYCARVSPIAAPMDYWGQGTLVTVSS VL: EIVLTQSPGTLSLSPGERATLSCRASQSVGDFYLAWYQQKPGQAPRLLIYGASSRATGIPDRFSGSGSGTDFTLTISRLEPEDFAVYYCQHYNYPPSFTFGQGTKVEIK", "koff, s⁻¹": 0.00141}
{"BINDER": "L1.LGF/L3.NY/H3.AL (antibody, V domains shown, IgG) VH: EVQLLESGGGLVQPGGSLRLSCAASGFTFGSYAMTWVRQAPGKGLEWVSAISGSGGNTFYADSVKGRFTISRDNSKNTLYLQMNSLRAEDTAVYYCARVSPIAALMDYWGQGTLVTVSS VL: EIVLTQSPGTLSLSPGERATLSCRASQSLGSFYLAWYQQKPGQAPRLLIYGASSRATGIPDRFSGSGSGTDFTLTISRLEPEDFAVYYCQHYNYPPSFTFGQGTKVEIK", "koff, s⁻¹": 0.00097}
{"BINDER": "L1.LGF/L3.NY/P6E01 (antibody, V domains shown, IgG) VH: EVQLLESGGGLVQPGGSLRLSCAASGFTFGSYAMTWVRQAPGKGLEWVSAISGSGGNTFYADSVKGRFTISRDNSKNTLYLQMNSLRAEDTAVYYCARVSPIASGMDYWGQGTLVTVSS VL: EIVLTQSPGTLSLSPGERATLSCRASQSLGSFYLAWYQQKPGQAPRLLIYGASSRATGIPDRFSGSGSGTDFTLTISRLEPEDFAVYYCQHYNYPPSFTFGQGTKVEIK", "koff, s⁻¹": 0.0044}
{"BINDER": "L1.GDF/L3.PY/H3.AQ (antibody, V domains shown, IgG) VH: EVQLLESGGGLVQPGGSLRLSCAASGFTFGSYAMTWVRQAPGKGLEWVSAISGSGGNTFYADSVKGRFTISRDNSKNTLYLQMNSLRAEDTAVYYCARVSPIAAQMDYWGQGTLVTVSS VL: EIVLTQSPGTLSLSPGERATLSCRASQSVGDFYLAWYQQKPGQAPRLLIYGASSRATGIPDRFSGSGSGTDFTLTISRLEPEDFAVYYCQHYPYPPSFTFGQGTKVEIK", "koff, s⁻¹": 0.0135}
{"BINDER": "L1.LGF/L3.NY/H3.AQ (antibody, V domains shown, IgG) VH: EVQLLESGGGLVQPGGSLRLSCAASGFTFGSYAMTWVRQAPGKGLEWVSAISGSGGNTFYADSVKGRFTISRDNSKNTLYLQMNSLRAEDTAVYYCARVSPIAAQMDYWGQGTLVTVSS VL: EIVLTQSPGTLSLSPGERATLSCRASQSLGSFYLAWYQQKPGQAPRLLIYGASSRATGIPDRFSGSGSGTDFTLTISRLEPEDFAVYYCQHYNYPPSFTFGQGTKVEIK", "koff, s⁻¹": 0.000299}
